MEASURED_ON: T1, biotinylated IL-22 with an N-terminal His/FLAG tag (bio.IL-22H/F) (human, UniProt Q9GZX6 34-179, biotinylated (site not stated))
T1 construct: not shown: N-terminal His/FLAG tag
T1 sequence: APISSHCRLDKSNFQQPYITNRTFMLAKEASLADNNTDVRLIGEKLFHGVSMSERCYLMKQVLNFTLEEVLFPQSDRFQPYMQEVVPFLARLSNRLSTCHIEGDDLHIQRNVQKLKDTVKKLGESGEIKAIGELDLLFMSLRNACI
ASSAY_DETAILS: DELFIA competition assay: scFv titrated against bio.IL-22H/F binding to the captured IL-22 receptor complex
Answer each item with its documented pIC50.
Value format note: pIC50 is -log10 of concentration (mol/L); just state the number.

What the record says about GIL92 scFv (non-germlined parent) (scFv) scFv: QVQLVQSGAEVKKPGASVKVSCKASGYTFTDYYMHWVRQAPGQGLEWVGWINPYTGGAFYAQKFRGRVTMTRDTSINTAYMELSRLGSDDTAVYYCAREPEKFDFWGGDNWGRGTMVTVSSGGGGSGGGGSGGGGSAQAVLTQPSSVSGAPGQRVTISCTGSSSNIGAGYGVHWYQQLPGTAPKLLIYGNSNRPSGVPDRFSGSKSGTSASLAITGLQAEDEADYYCQSYDSSLSGYVFGTGTQLTVLSAAA : pIC50 is 7.40

What the record says about GIL60 scFv (non-germlined parent) (scFv) scFv: EVQLVESGGGVVRPGGSLRLSCAASGFTFDDYGMNWVRQAPGKGLEWVSGVNGNGGTRDYAASVKGRFTISRDNAKNSLYLQMNSLRAEDTALYYCARGWYSGSFYYFGYWGRGTLVTVSSGGGGSGGGGSGGGGSAQAVLTQPSSVSGSPGQSITISCTGASGDVGAYNFVSWYQQHPGKTPKLIIYDVNKRPSGVSNRFSGSKSGNTASLTISGLQAEDESDYYCSSYTSTFSVVFGGGTKVTVLGAA : pIC50 is 7.22

What the record says about GIL16 scFv (non-germlined parent) (scFv) scFv: QVQLVESGAEVKKPGASVKVSCKASGYTFTSYGISWVRQAPGQGLEWMGWISAYTGNTNYAQKFQGRVTMTTDTSTSTAYMELRSLRSDDTAVYYCARDRGYYDAFDIWGQGTLVTVSSGGGGSGGGGSGGGGSDIQMTQSPSTLSASIGDRVTITCRASEGIYHWLAWYQQKPGKAPKLLIYKASSLASGAPSRFSGSGSGTDFTLTISSLQPDDFATYYCQQYSNYPLTFGGGTKLEIKRAAA : pIC50 is 7.26

What the record says about GIL68 scFv (non-germlined parent) (scFv) scFv: EVQLVQSGAEVKKPGASVKVSCQASGYTFSDYYIHWVRQTPGQGFEWMGWVNPDTGGTRYAQKFQGWVTMTRDMSNTTAYMELPRLRDDDTAVYYCARDLTGFDPFDIWGQGTLVTVSSGGGGSGGGGSGGGGSAQSVLTQPPSVSVAPGKTATITCGGNNFRNKRVHWYQQRPGQAPVLVIYYDSDRPSGIPERFSGSRSGNTATLTISRVEAGDEADFYCQVWDSSTDRPLFGGGTKLTVLGAAA : pIC50 is 8.00

What the record says about GIL01 scFv (non-germlined parent) (scFv, also called GIL 1) scFv: EVQLVESGGGLVTPGGSLRLSCAASGFTFSDYYMSWIRQAPGRGLEWVSAISGSGGSTYYADSVKGRITISRDNAKNSLYLQMSSLRSEDTAVYYCARGLWVWDPLDYWGRGTLVTVSSGGGGSGGGGSGGGGSDIQMTQSPSTLSASIGDRVTITCRASEGIYHWLAWYQQKPGKAPKLLIYKASSLASGAPSRFSGSGSGTDFTLTISSLQPDDFATYYCQQYSNYPLTFGGGTKLEIKRAAA : pIC50 is 7.02
